run description: chemical genetic growth profiling, strain panel (AID 1159580);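 note: tested at 20 µM; growth read once vehicle control cultures reached saturation at 30 °C; 1 = growth at the plate median or of vehicle wells; lower values mean less growth of the strain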
condition notes: S. cerevisiae deletion strains, growth OD, locus YER110C, active compounds read low
Screen size: about 5,500 compounds; about 2,000 (36%) were called active. Another 18% or so got no clear call; they are omitted. The list shows a part of the results.
observed property: normalized growth

CCC(=O)O[C@H]1[C@H](O[C@@H]2[C@@H](C)[C@H](O[C@H]3C[C@@](C)(OC)[C@@H](O)[C@H](C)O3)[C@@H](C)C(=O)O[C@H](CC)[C@@](C)(O)[C@H](O)[C@@H](C)C(=O)[C@H](C)C[C@@]2(C)O)O[C@H](C)C[C@@H]1N(C)C; 0.967 (inactive)
S=c1nc[nH]c2nc[nH]c12; 0.969 (inactive)
C[C@H]1OC(n2cc(F)c(=O)[nH]c2=O)C(O)[C@@H]1O (stereo partly drawn); 0.948 (inactive)
CC[C@H]1OC(=O)[C@H](C)[C@@H](O[C@H]2C[C@@](C)(OC)[C@@H](O)[C@H](C)O2)[C@H](C)[C@@H](O[C@@H]2O[C@H](C)C[C@H](N(C)C)[C@H]2O)[C@](C)(O)C[C@@H](C)CN(C)[C@H](C)[C@@H](O)[C@]1(C)O; 0.972 (inactive)
CC(C(=O)O)c1cccc(C(=O)c2ccccc2)c1 (stereo not drawn); 0.957 (inactive)
COc1ccc(OC)c(C(O)C(C)N)c1 (stereo not drawn); 0.981 (inactive)
CC1/C(=N\O)C[C@@H]2C[C@H]1C2(C)C (stereo partly drawn); 1.01 (inactive)

Below: the item to evaluate.
Qu. Field request: normalized growth | item: COc1ccc2cc([C@H](C)C(=O)O)ccc2c1
Ans. 0.992 (inactive)
